assay_notes: CD spectroscopy, helicity;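 note: share of the total helicity with liposomes gained over the same peptide in PBS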
Format: physicochemical
assay_context: increase in molar ellipticity at 222 nm in the presence of liposomes
Where no end group is shown, it is not given here.
value_kind: % of helicity induced by Liposomes (%)
Entry rule: numbers only, all in %.

Recorded % of helicity induced by Liposomes, per entry:
Reported % of helicity induced by Liposomes for Ac-KWIKKWIKWWKK-NH2 [7d] : what is it?
80.63

Reported % of helicity induced by Liposomes for RWLRRWLRWWR-NH2 [5d] : what is it?
29.31

More entries:
Reported % of helicity induced by Liposomes for WRRWWRR-NH2 [1c] : what is it?
14.68

###

System: S. aureus (ATCC 29213)
assay_notes: MIC, standard microtiter dilution (CLSI)
Assay type: cell-based
assay_context: broth microdilution (CLSI), CAMHB, 10^6 CFU/mL, 37 °C, 24 h; highest MIC of three independent experiments in triplicate
Where no end group is shown, it is not given here.
Consider the following substances and their measured MIC, S. aureus (ATCC 29213) readings.
Entry rule: numbers only, all in µg/mL.

Recorded MIC, S. aureus (ATCC 29213), per entry:
Reported MIC, S. aureus (ATCC 29213) for KWLKKWLKWWKK-NH2 [8b] : what is it?
3.1

Reported MIC, S. aureus (ATCC 29213) for WRRWWRR-NH2 [1c] : what is it?
100

Reported MIC, S. aureus (ATCC 29213) for RWARRWARWWR-NH2 [5b] : what is it?
50

Reported MIC, S. aureus (ATCC 29213) for Ac-KWAKKWAKWWKK-NH2 [6d] : what is it?
50

More entries:
Reported MIC, S. aureus (ATCC 29213) for RRWRRWW-NH2 [1d] : what is it?
100

Reported MIC, S. aureus (ATCC 29213) for RWIRRWIRWWR-NH2 [5c] : what is it?
50

Reported MIC, S. aureus (ATCC 29213) for RWARRWARWWRR-NH2 [6a] : what is it?
50

Reported MIC, S. aureus (ATCC 29213) for Ac-RWLRRWLRWWRR-NH2 [8c] : what is it?
6.2

Reported MIC, S. aureus (ATCC 29213) for RWIRRWIRWWRR-NH2 [7a] : what is it?
6.2

Reported MIC, S. aureus (ATCC 29213) for RRWWRRW-NH2 [1b] : what is it?
50

Reported MIC, S. aureus (ATCC 29213) for ARRWWRRW-NH2 [2e] : what is it?
100

Reported MIC, S. aureus (ATCC 29213) for Ac-RWARRWARWWRR-NH2 [6c] : what is it?
50

Reported MIC, S. aureus (ATCC 29213) for KWIKKWIKWWKK-NH2 [7b] : what is it?
6.2

Reported MIC, S. aureus (ATCC 29213) for Ac-KWLKKWLKWWKK-NH2 [8d] : what is it?
3.1

Reported MIC, S. aureus (ATCC 29213) for KWAKKWWKWWKK-NH2 [6e] : what is it?
12.5

Reported MIC, S. aureus (ATCC 29213) for Ac-KWIKKWIKWWKK-NH2 [7d] : what is it?
6.2

Reported MIC, S. aureus (ATCC 29213) for RWLRRWLRWWRR-NH2 [8a] : what is it?
6.2

Reported MIC, S. aureus (ATCC 29213) for KWAKKWAKWWKK-NH2 [6b] : what is it?
100

Reported MIC, S. aureus (ATCC 29213) for RWLRRWLRWWR-NH2 [5d] : what is it?
25

Reported MIC, S. aureus (ATCC 29213) for KWLKKWWKWWKK-NH2 [8e] : what is it?
12.5
